Each recorded value in this set is attributed to patent US20120225060A1.

Target: T1, recombinant human IL-6R-extracellular domain (ECD) (human, UniProt P08887 20-365)
T1 construct: extracellular domain; also called IL-6R-ECD
T1 sequence (looked up): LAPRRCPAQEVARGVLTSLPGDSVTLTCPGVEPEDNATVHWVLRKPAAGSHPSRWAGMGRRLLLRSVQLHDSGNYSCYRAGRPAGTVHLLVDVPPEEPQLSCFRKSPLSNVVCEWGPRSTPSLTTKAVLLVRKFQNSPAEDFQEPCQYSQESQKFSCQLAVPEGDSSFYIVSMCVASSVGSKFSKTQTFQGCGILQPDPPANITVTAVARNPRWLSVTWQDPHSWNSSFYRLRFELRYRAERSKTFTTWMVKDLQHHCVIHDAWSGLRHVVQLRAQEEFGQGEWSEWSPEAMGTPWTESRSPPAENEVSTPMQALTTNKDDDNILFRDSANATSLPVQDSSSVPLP
Experiment: receptor-ligand ELISA, blocking of IL-6 binding to IL-6R

# binder, IC50, µg/mL
rows = [
    ("clone 23 rabbit anti-IL-6R antibody (antibody, V domains shown) VH: QSLEESGGRLVTPGTPLTLTCTVSGIDLSRYWMSWVRQAPGKGLEWIGMISGGNTWYASWAKGRFTISKTSTTVDLKITSPTTEDTATYFCARGIDTGIATTFNLWGPGTLVTVSS VL: AQVLTQTPSSVSTAVGGTVTISCQSSQNVYNNNRLSWFQQKPGQPPKLLIYYTSTLPSGVPSRFKGSGSGTQFTLTISDLECDDAATYYCQGYYSGVINVFGGGTEVVVK", 0.38),
    ("clone 36 rabbit anti-IL-6R antibody (antibody, V domains shown) VH: QSVEESGGRLVTPGTPLTLTCTVSGFSLSSYYMSWVRQAPGKGLEWIGITTTSTNTFYASWAKGRFTISKTSATVDLKITSPTIEDTATYFCARYGGNSAYYAFSLWGQGTLVTVSS VL: QVLTQTASSVSAAVGGTVTISCQSSQSVYNNNYLAWFQQKPGQPPKLLIYGASNLASGVPSRFKGSGSGTQFTLTISDLECDNAATYYCQGYYNGVIFVFGGGTEVVVK", 0.23),
    ("clone 21 rabbit anti-IL-6R antibody (antibody, V domains shown) VH: QSVEESGGRLVTPGTPLTLTCTVSGIDLSNYYMSWVRQAPGKGLEWIGISSTTSNTFYASWAKGRFTISKTSATVDLKITSPTTEDTATYFCARYGGNSAYYAFSLWGQGTLVTVSS VL: AVVLTQTPSPVSAAVGGTVTINCQSSQSVYNNNYLAWYQQKPGQPPKLLIYGASNLASGVPSRFKGSGSGTQFTLTISEVQCDDAATYYCQGYYNGVIFVFGGGTEVVVK", 0.47),
]
